Molecular target: T1, human BCMA protein (human, UniProt Q02223 1-54, limits assumed)
T1 sequence: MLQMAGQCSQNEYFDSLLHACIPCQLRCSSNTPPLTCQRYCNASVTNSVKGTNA
Assay: affinity to human BCMA protein, method not stated
pKd: −log10 of the molar value.
Reported pKd by item:
MEASURED QUANTITY: pKd

>>> recorded_number("BCMA targeting trispecific protein 01A08 (other, not shown: large carriers; small tags and cut ends, trispecific) VHH: EVQLVESGGGLVQPGRSLTLSCAASTNIFSSSPMGWYRQAPGKQRELVAAIHGESTLYADSVKGRFTISRDNAKNSIYLQMNSLRPEDTALYYCNKVPWGDYHPRKVYWGQGTQVTVSS")
7.93
>>> recorded_number("BCMA targeting trispecific protein 01H09 (other, trispecific; not shown: the C-terminal His6 follows those missing domains and is left out) VHH: EVQLVESGGGLVQPGRSLTLSCAASTNIMSISPMGWYRQAPGKQRELVAAIHGNSTLYADSVKGRFTISRDNAKNSIYLQMNSLRPEDTALYYCNKVPWGDYHPGNVYWGQGTQVTVSS")
8.26
>>> recorded_number("BCMA targeting trispecific protein 01D07 (other, not shown: large carriers; small tags and cut ends, trispecific) VHH: EVQLVESGGGLVQPGRSLTLSCAASTNIFSASPMGWYRQAPGKQRELVAAIHGSSTLYADSVKGRFTISRDNAKNSIYLQMNSLRPEDTALYYCNKVPWGDYHPRNVNWGQGTQVTVSS")
7.71
>>> recorded_number("BCMA targeting trispecific protein 02H09 (other, not shown: large carriers; small tags and cut ends, trispecific) VHH: EVQLVESGGGLVQPGRSLTLSCAASTNIFSRSPMGWYRQAPGKQRELVAAIHGSSTLYADSVKGRFTISRDNAKNSIYLQMNSLRPEDTALYYCNKVPWGDYHPGNVYWGQGTQVTVSS")
8.17

Value source: patent US20240327534A1
